pKi: −log10 of the molar value.
Endpoint summary: pKi, system: Histamine H3 receptor (Homo sapiens, UniProt Q9Y5N1), multiple sources combined.
Quantity: pKi

{"Compound": "C(#Cc1cncc(CN2CCCCC2)c1)CCN1CCCCC1", "Censoring operator": "=", "Value": 8.70}
{"Compound": "CSc1nc2cc(Cl)ccc2n1C1CCN(C(=O)C2CCN(Cc3ccnnc3)CC2)CC1", "Censoring operator": "=", "Value": 8.40}
{"Compound": "COc1ccc(C2CN(C)Cc3cc(OC4CCN(C(C)C)CC4)ccc32)cc1 (stereo not drawn)", "Censoring operator": "=", "Value": 9.00}
{"Compound": "NCCC(Oc1ccc(C(F)(F)F)cc1)c1ccc(OCCCN2CCCCC2)cc1 (stereo not drawn)", "Censoring operator": "=", "Value": 8.10}
{"Compound": "Clc1cccc(C2CNCc3cc(OCCCN4CCCCC4)ncc32)c1 (stereo not drawn)", "Censoring operator": "=", "Value": 8.70}
{"Compound": "Cc1cccn2cc(-c3ccc(OCCCN4CCN(CCc5ccccc5)CC4)cc3)nc12", "Censoring operator": "=", "Value": 6.30}
{"Compound": "O=C1NN=C(c2ccc3c(c2)CCC2(CCN(C4CCC4)CC2)O3)C2CC12 (stereo not drawn)", "Censoring operator": ">", "Value": 6.70}
{"Compound": "COc1cccc(C2CN(C)Cc3cc(OC4CCN(C(C)C)CC4)ccc32)c1 (stereo not drawn)", "Censoring operator": "=", "Value": 8.70}
